The reported measurements were obtained from patent US20240368139A1.

- Tested Target: hERG potassium channels (Homo sapiens, UniProt Q12809)
- Sequence (Q12809 whole entry): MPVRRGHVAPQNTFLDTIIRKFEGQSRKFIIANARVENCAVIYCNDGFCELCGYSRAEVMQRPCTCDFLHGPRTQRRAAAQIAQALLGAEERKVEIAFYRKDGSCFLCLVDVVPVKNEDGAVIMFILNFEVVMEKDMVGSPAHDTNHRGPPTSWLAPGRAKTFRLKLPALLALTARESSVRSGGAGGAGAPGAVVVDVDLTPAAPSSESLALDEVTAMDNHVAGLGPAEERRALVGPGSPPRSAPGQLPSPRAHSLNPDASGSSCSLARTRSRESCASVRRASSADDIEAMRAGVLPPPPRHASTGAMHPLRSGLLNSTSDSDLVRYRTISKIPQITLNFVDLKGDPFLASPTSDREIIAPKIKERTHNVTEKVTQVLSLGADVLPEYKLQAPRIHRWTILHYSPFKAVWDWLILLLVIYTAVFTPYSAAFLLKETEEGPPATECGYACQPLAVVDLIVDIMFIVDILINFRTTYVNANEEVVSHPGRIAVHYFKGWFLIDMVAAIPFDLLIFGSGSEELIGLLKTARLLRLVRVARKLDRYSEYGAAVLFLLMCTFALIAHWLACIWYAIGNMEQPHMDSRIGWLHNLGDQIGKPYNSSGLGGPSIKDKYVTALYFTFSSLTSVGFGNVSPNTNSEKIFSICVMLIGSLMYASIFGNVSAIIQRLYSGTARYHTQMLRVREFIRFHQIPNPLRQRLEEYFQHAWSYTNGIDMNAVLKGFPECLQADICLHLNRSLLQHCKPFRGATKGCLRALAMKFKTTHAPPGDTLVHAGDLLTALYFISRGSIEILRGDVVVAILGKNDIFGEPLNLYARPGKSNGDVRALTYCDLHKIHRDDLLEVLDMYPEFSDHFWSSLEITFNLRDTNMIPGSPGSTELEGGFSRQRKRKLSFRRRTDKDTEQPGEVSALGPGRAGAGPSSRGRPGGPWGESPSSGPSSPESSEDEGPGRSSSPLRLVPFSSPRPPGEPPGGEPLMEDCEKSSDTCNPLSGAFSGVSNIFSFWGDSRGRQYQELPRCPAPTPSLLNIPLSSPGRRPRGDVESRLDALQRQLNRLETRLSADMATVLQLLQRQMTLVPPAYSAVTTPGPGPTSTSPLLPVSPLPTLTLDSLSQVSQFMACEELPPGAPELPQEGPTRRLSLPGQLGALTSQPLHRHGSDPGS
- Protocol Text: In vitro hERG assay (SyncroPatch whole-cell recording)
- Cond: hERG IC50, SyncroPatch, room temperature
pIC50: −log10 of the molar value.
Quantity Measured: pIC50

- Compound: "COCCNc1cc(C)nc(Nc2cc3c(c(C4=CCNCCC4)c2)OCC3)n1 [Compound 327]"
  pIC50: "< 5.00"
- Compound: "CNc1cc(C)nc(Nc2cc3c(c(C4=CCNC(C)CC4)c2F)OCO3)n1 (single isomer, unassigned) [Compound 369]"
  pIC50: "5.00 to 5.30"
- Compound: "CNc1cc(C)nc(Nc2cc3c(c(OCCCN4CCCC4)c2)OCCC3)n1 [Compound 113]"
  pIC50: "> 5.70"
- Compound: "CNc1cc(C)nc(Nc2cc3c(c(C4=CCNC(C)CC4)c2Cl)OCCC3)n1 (single isomer, unassigned) [Compound 357]"
  pIC50: "5.00 to 5.30"
- Compound: "CNc1cc(C(C)C)nc(Nc2cc3c(c(C4=CCNCCC4)c2)OCC3)n1 [Compound 326]"
  pIC50: "5.30 to 5.70"

Problem: May I ask what pIC50 has been recorded for Cc1cc(NCC(F)(F)F)nc(Nc2cc3c(c(C4=CCNCCC4)c2)OCC3)n1 [Compound 322] ?
Result: 5.30 to 5.70

Problem: I am curious: what pIC50 value has been reported for CNc1cc(C)nc(Nc2cc3c(c(C4=CCNCC(F)C4)c2F)OCC3)n1 (single isomer, unassigned) [Compound 167] ?
Result: 5.00 to 5.30

Problem: Which pIC50 reading was recorded for the compound CNc1cc(C)nc(Nc2cc3c(c(C4=CCNCC(O)C4)c2Cl)OCC3)n1 (single isomer, unassigned) [Compound 384] ?
Result: < 5.00
